# protocol: In vivo biodistribution of [^203Pb]VMT01 in B16-F10 melanoma xenograft model
# Parameters: species or system athymic nude mice
# run-conditions: both sexes, athymic nude, mouse, heart, intravenous, 74 KBq, total radioactivity, 3 h post-injection, tail vein, read-out: Biodistribution, Heart, Average
Where a SMILES comes first, the peptide text is derived from it. Bridges are numbered along the chain shown (N, C = ends). Triazole bridges read from a SMILES are 1,4-linked. Side-chain parts run from the residue outwards. [ ]: non-standard residue; d: D form. The star is where a group is joined. X1 = NC(=O)CN1CCN(CC(=O)O)CCN(CC(=O)*)CCN(CC(=O)O)CC1; Lys(N3) = [N-]=[N+]=NCCCC[C@H](N)C(=O)O; Nle = CCCC[C@H](N)C(=O)O; Pra = C#CC[C@H](N)C(=O)O; AEEA = NCCOCCOCC(=O)O
property-label: tissue uptake at 3 h (%ID/g)

{"columns": ["compound", "measured-value"],
 "data": [
  ["CCCC[C@H](NC(C)=O)C(=O)N[C@H]1Cc2cn(nn2)CCCC[C@@H](C(=O)N[C@@H](CCCCNC(=O)COCCOCCNC(=O)CN2CCN(CC(=O)O)CCN(CC(N)=O)CCN(CC(=O)O)CC2)C(N)=O)NC(=O)[C@H](Cc2c[nH]c3ccccc23)NC(=O)[C@H](CCCNC(=N)N)NC(=O)[C@@H](Cc2ccccc2)NC(=O)[C@H](Cc2c[nH]cn2)NC1=O [[^203Pb]VMT01, metal not drawn] (Ac-[Nle][Pra]H[dF]RW[Lys(N3)]K([AEEA-X1])-NH2; triazole 2-7)", 0.05]
]}
